molecular target: Human Platelet PAF Receptor (Homo sapiens, UniProt P25105); construct: endogenous in cells; assay: Human Platelet PAF Receptor Assay test (Test A)
Sequence (P25105 whole entry): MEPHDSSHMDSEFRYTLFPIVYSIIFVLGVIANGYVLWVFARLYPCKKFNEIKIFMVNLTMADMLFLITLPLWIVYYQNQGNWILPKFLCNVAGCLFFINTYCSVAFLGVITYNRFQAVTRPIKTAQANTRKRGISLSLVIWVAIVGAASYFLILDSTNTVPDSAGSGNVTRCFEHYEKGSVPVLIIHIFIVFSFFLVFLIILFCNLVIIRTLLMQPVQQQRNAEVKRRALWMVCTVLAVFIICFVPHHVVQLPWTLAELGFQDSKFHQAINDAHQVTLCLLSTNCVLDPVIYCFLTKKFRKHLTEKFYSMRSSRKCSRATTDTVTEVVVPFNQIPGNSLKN
assay endpoint: pIC50
Value format note: pIC50 is -log10 of concentration (mol/L); just state the number.

-- ask // Input: COc1cc(CCc2ccc(C3=NCc4nnc(C)n4-c4sccc43)cc2)cc(OC)c1OC . Output its pIC50 only.
-- reply 6.66
